test target: T1, O13-bH
T1 chain: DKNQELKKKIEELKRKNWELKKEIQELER
protocol summary: two-hybrid library CCNG1;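 also: natural log of median RNA to DNA barcode read ratio; higher means stronger binding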
Provide the recorded interaction score for the entries that follow.

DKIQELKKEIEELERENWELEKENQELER [O11-bH]	-0.515
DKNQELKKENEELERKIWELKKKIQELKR [O10-bH]	0.177
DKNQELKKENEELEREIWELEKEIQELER [O1-bH]	0.467

Dear reader, for each entry below, please note its interaction score.
1. DEIAQLKQENAELEQKIAELKWKNAQLEQ [4H687-bA]
2. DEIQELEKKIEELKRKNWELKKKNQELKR [O12-bH]

Key:
1.07
0.332
